Each entry below carries its reported LC retention time.
assay: LC retention time (Atlantis T3, 5-95% MeOH gradient, 0.1% formic acid); higher = more retained / less polar

MOLECULE	ENDPOINT UNIT	LC retention time
NC(=O)N=C1SCCN1Cc1ccc(Cl)nc1 [Thiacloprid-amide]	min	13.2
CCCCc1nc(Cl)c(CO)n1Cc1ccc(-c2ccccc2-c2nn[nH]n2)cc1	min	18.3
CON=C(C1=NOCCO1)c1ccccc1Oc1ncnc(Oc2ccccc2Cl)c1F	min	19.8
CC(=O)Nc1ccc(S(=O)(=O)[N-]c2nccs2)cc1	min	12.2
CN1C(=O)CCC1c1cccnc1 (centres undefined)	min	6.11
CNC(=O)Oc1cc(C)c(SC)c(C)c1	min	19.4
Cc1cn(C2CC(N=[N+]=[N-])C(CO)O2)c(=O)[nH]c1=O (centres undefined)	min	13.1
CC12CCC(=O)C=C1CCC1C2C(O)CC2(C)C1CCC2(O)C(=O)CO (centres undefined) [Hydrocortison]	min	18
NC(=O)c1cn(Cc2c(F)cccc2F)nn1	min	14
CC1(C)CON(Cc2ccccc2Cl)C1=O	min	19
O=C([O-])Cc1ccccc1Nc1c(Cl)cc(O)cc1Cl [4-Hydroxydiclofenac A]	min	19.2
O=C([O-])c1ccccc1Nc1cccc(C(F)(F)F)c1	min	21.6
CC12C=CC(=O)C=C1CCC1C2C(O)CC2(C)C1CCC2(O)C(=O)CO (centres undefined)	min	18
CC1=NNC(=O)N(N=Cc2cccnc2)C1	min	8.65
CC(=O)N1CCN(c2ccc(OCC3COC(Cn4cc[nH+]c4)(c4ccc(Cl)cc4Cl)O3)cc2)CC1 (centres undefined)	min	16
O=c1c(-c2ccc(O)cc2)coc2cc([O-])cc(O)c12	min	17.9
[NH3+]CC1(CC(=O)[O-])CCCCC1	min	10.4
O=C([O-])Cc1ccccc1Nc1c(Cl)cccc1Cl	min	20.8
O=C1Nc2ccc(Cl)cc2C(c2ccccc2Cl)=NC1O (centres undefined)	min	18.3

These entries and their values trace back to the supplement of paper PMC6470124.
